molecular target: Galectin-7 (Homo sapiens, UniProt P47929)
Sequence (P47929 whole entry): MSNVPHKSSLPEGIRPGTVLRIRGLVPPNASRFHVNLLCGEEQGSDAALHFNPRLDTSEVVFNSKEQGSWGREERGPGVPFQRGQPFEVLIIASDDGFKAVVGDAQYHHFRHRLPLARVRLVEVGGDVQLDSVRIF
pKd: −log10 of the molar value.
measure: pKd

> print(dat)
                            substancesmiles                                targetdesc  numericvalue
1  OC[C@H]1O[C@H](Sc2cc(Cl)c(F)c(Cl)c2)[C@H](O)[C@@H](n2cc(-c3nccs3)nn2)[C@H]1O  Galectin-7 (Homo sapiens, UniProt P47929)          4.22

---

experiment: Apparent permeability from basolateral to apical side in human Caco-2 cells at 10 uM incubated for 90 mins by LC-MS/MS analysis; type: ADME, cell-based
Entries and their Papp B→A at 1.5 h, 10 µM
measure: Papp B→A at 1.5 h, 10 µM (×10⁻⁶ cm/s)

> print(dat)
                            substancesmiles  numericvalue
1  OC[C@H]1O[C@H](Sc2ccc(Cl)c(Cl)c2)[C@H](O)[C@@H](n2cc(-c3cc(F)c(F)c(F)c3)nn2)[C@H]1O            20
2  OC[C@H]1O[C@H](Sc2ccc(Cl)c(Cl)c2)[C@H](O)[C@@H](n2cc(-c3ccsc3)nn2)[C@H]1O            18
3  OC[C@H]1O[C@H](Sc2cncc(Br)c2)[C@H](O)[C@@H](n2cc(-c3ccsc3)nn2)[C@H]1O            31
4  OC[C@H]1O[C@H](Sc2cc(Cl)c(F)c(Cl)c2)[C@H](O)[C@@H](n2cc(-c3cscn3)nn2)[C@H]1O            30
